Reference source for all entries: the supplement of paper PMC11208160

- PROTOCOL_SUMMARY: recombinant barcode read abundance after kanamycin selection (control-corrected) (log10(CPM+1)); higher = more efficient recombination; sequences stand for … in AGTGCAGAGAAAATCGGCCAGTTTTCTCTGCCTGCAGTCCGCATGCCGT…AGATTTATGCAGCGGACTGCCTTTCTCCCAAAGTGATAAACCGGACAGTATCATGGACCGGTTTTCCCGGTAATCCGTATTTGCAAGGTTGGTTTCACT; site = the 11-nt target
Everything with recombinant barcode read abundance (log10) lower than 0.1 is Not met; everything else, including exactly 0.1, is Met.

• GATGCCACTTGGGTTCTAACCTGTTGCCT (site GATCCCACTAG) = Met
• CGAACTACTTGGGTTCTAACCTGTTGCGT (site CGAACTACTAG) = Met
• GACCGGGCTTGGGTTCTAACCTGTTGCCT (site GACCGCGCTAG) = Met
• CTATTTGCTTGGGTTCTAACCTGTTGCAA (site CTAATTGCTTT) = Not met
• TAGATCACTTGGGTTCTAACCTGTTGCAT (site TAGCTCACTAT) = Met
• ACATGCACTTGGGTTCTAACCTGTTGCAT (site ACATGAACTAT) = Not met
• ACCAAATCTTGGGTTCTAACCTGTTGCCG (site ACCAAATCTCG) = Not met
• CCGCATGCTTGGGTTCTAACCTGTTGCCT (site CCGCATGCTAG) = Met
• TTGGTCGCTTGGGTTCTAACCTGTTGCCT (site TTGGGCGCTAG) = Not met
• GAGAAGTCTTGGGTTCTAACCTGTTGCCT (site GAGGAGTCTAG) = Met
• TTGGCGCCTTGGGTTCTAACCTGTTGCCT (site TTGGCGCCTAG) = Met
• CTCCGGCCTTGGGTTCTAACCTGTTGCTT (site CTCCGTCCTAA) = Not met
• GTCCGAACTTGGGTTCTAACCTGTTGCCA (site GTCCGAACTTG) = Met
• CGGGTAACTTGGGTTCTAACCTGTTGCCT (site CTGGAAACTAG) = Not met
• GGGGCCTCTTGGGTTCTAACCTGTTGCAG (site GGGGCCTCTCT) = Met
• ACTAGAGCTTGGGTTCTAACCTGTTGCCT (site ACAAGAGCTAG) = Met
• CCTCAGTCTTGGGTTCTAACCTGTTGCTT (site CCTCAGTCTAA) = Met
• TTATGGGCTTGGGTTCTAACCTGTTGCCG (site TTATGGGCTCG) = Met
• CGGCTTCCTTGGGTTCTAACCTGTTGCGT (site CGGCTTCCTAC) = Met
• TTGCTAGCTTGGGTTCTAACCTGTTGCGG (site TTGCTAGCTCC) = Met
• AATTGTCCTTGGGTTCTAACCTGTTGCTT (site AATTGTCCTAG) = Not met
• CGACTTACTTGGGTTCTAACCTGTTGCAT (site CGACTTACTAT) = Not met
• CGATCGACTTGGGTTCTAACCTGTTGCAG (site CGATCGACTCT) = Met
• GAGTGGCCTTGGGTTCTAACCTGTTGCCT (site GAGTGGCCTAT) = Met
• TGAGTGCCTTGGGTTCTAACCTGTTGCTT (site TGAGTTCCTAA) = Not met
• AGCCCTCCTTGGGTTCTAACCTGTTGCAG (site GAAATAACTAC) = Met
• TACTCCTCTTGGGTTCTAACCTGTTGCGG (site TACTCCTCTCC) = Met
• AGATCTCCTTGGGTTCTAACCTGTTGCCT (site AGATCTCCTAG) = Met
• AACACTCCTTGGGTTCTAACCTGTTGCTT (site AAGACTCCTAA) = Met

---

Below is a list of entries, each paired with its recorded recombinant barcode read abundance (log10) value.
- PROTOCOL_SUMMARY: recombinant barcode read abundance after kanamycin selection (control-corrected) (log10(CPM+1)); higher = more efficient recombination; sequences stand for … in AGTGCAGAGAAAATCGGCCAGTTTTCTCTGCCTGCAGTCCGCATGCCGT…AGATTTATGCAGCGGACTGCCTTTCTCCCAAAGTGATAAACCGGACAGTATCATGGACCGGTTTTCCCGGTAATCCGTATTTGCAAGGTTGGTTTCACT; site = the 11-nt target
MEASUREMENT_TYPE: recombinant barcode read abundance (log10)

* AGATGGCCTTGGGTTCTAACCTGTTGCAT (site AGATGGACTCT) | 0.152
* CGTTGTTCTTGGGTTCTAACCTGTTGCCT (site CGTTGTTCTAG) | 0.163
* TAGACGACTTGGGTTCTAACCTGTTGCTT (site TAGTCGACTAA) | 0.086
* GGCTCCTCTTGGGTTCTAACCTGTTGCCT (site CGCTCCTCTAG) | 0.0966
* CTTCGAGCTTGGGTTCTAACCTGTTGCTG (site CTTCGAGCTCG) | 0.184
* TTACGTACTTGGGTTCTAACCTGTTGCCT (site CTACGTACTAG) | 0.193
* ACATATCCTTGGGTTCTAACCTGTTGCGT (site ACATATCCTAC) | 1.78
* TAGAACACTTGGGTTCTAACCTGTTGCCT (site GAGAACACTAG) | 0.108
* TAGACTACTTGGGTTCTAACCTGTTGCTG (site TAGACTACTTA) | 0.0595
* ACGCCGACTTGGGTTCTAACCTGTTGCCT (site ACGCCGACTAG) | 0.432
* ACACTAGCTTGGGTTCTAACCTGTTGCTG (site ACACTAGCTCA) | 1.19
* CGGTAGTCTTGGGTTCTAACCTGTTGCTG (site CGGTAGTCTAA) | 0.0345

---

- PROTOCOL_SUMMARY: recombinant barcode read abundance after kanamycin selection (control-corrected) (log10(CPM+1)); higher = more efficient recombination; sequences stand for … in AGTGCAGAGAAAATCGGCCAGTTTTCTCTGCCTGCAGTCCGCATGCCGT…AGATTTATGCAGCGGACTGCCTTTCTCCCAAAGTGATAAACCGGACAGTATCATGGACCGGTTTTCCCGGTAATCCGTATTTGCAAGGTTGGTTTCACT; site = the 11-nt target
Everything with recombinant barcode read abundance (log10) lower than 0.2 is Not satisfied; everything else, including exactly 0.2, is Satisfied.

- TTAACTACTTGGGTTCTAACCTGTTGCTT (site TTAACTACTCA): Satisfied
- TGCTCTACTTGGGTTCTAACCTGTTGCTT (site TGCTCTACTAA): Not satisfied
- TAGGTGTCTTGGGTTCTAACCTGTTGCCT (site TAGGTGTCTAG): Satisfied
- TCTGAAACTTGGGTTCTAACCTGTTGCCT (site TCCGAAACTAT): Not satisfied
- ATAAAGACTTGGGTTCTAACCTGTTGCCT (site ATAAAGACTAG): Satisfied

---

Below is a list of entries, each paired with its recorded recombinant barcode read abundance (log10) value.
- PROTOCOL_SUMMARY: recombinant barcode read abundance after kanamycin selection (control-corrected) (log10(CPM+1)); higher = more efficient recombination; sequences stand for … in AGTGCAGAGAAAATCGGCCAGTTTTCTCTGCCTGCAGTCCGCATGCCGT…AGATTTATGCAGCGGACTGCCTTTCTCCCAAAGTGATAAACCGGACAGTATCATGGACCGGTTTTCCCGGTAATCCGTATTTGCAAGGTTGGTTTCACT; site = the 11-nt target
MEASUREMENT_TYPE: recombinant barcode read abundance (log10)

* ACATGCACTTGGGTTCTAACCTGTTGCAT (site ACATGCACTAT) | 1.05
* AGATTTCCTTGGGTTCTAACCTGTTGCCT (site AGATTTCCTAG) | 0.326
* GTAACCTCTTGGGTTCTAACCTGTTGCTC (site GTCACCTCTTA) | 0.00986
* ACCAAATCTTGGGTTCTAACCTGTTGCCG (site ACCAAATCTTA) | 0.0479
* ATCGTTGCTTGGGTTCTAACCTGTTGCCT (site GTCGTTGCTAG) | 0.0617
* ATGCCCACTTGGGTTCTAACCTGTTGCCT (site ATGCCCACTAG) | 1.33
* TAGGTACCTTGGGTTCTAACCTGTTGCAT (site TAGGTGCCTAT) | 0.0753
* ACGGTCACTTGGGTTCTAACCTGTTGCCT (site AAGGTCACTAG) | 0.331
* CGCCTAGCTTGGGTTCTAACCTGTTGCCT (site CGCCTAGCTAG) | 0.206

---

- PROTOCOL_SUMMARY: recombinant UMI read abundance after kanamycin selection (control-corrected) (log10(CPM+1)); higher = more efficient recombination; extreme values may be limits of the assay; sequences stand for … in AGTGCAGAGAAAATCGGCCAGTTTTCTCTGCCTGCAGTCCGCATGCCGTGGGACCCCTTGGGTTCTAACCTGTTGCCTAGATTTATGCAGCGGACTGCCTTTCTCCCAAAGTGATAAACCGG…AGGTTGGTTTCACT; site = the 11-nt donor
MEASUREMENT_TYPE: recombinant UMI read abundance (log10)

• CTACTGTCATGGACCGGTTTTCCCGGTAATCCGTATTTGTA (site CTACTGTCTTA) = 3.13
• CTGCCCACATGGACCGGTTTTCCCGGTAATCCGTATTTGCG (site CTGCCCACTCG) = 1.76
• CCGGGTTCATGGACCGGTTTTCCCGGTAATCCGTATTTGGC (site CCGGGTTCTGC) = 1.57
• TGTACACCATGGACCGGTTTTCCCGGTAATCCGTATTTGGC (site TGTACACCTGG) = 0
